# TESTED_TARGET: T1, clec-4a (UniProt Q9UMR7 70-237)
# T1 construct: also called DCIR
# T1 sequence (looked up): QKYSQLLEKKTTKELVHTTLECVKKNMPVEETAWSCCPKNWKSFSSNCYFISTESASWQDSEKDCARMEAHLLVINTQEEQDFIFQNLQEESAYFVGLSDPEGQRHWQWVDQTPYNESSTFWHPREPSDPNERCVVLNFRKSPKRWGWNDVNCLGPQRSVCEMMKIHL
# ASSAY: ELISA
EXPERIMENTAL_READOUT: binding result

• [change]/[change] (other) DKTHTCPPCPAPELLGGPSVFLFPPKPKDTLMISRTPEVTCVVVDVSHEDPEVKFNWYVDGVEVHNAKTKPREEQYASTYRVVSVLTVCLQDWLNGKEYKCKVSNKALPAPIEKTISKAKGQPREPQVYTLPPSREEMTKNQVSLTCLVKGFYPSDIAVEWESNGQPENNYKTTPPVLDSDGSFFLYSKLTVDKSRWQQGNVFSCSVMHEALHNHYTQKSLSLSPGKLVLGPPLYNVSLVMSDTAGTAY = no binding
• [change]/[change]/[change] (other) NKTHTCPPCPAPELLGGPSVFLFPPKPKDTLMISRTPEVTCVVVDVSHEDPEVKFNWYVDGVEVHNAKTKPREEQYNSTYRVVSVLTVCLQDWLNGKEYKCKVSNKALPAPIEKTISKAKGQPREPQVYTLPPSREEMTKNQVSLTCLVKGFYPSDIAVEWESNGQPENNYKTTPPVLDSDGSFFLYSKLTVDKSRWQQGNVFSCSVMHEALHNHYTQKSLSLSPGKLVLGPPLYAVSLVMSDTAGTAY = no binding
